# Test system: MT4
# Protocol summary: Cytotoxic concentration which reduces the cell viability of HIV-1 IIIB infected T4 lymphoblastoid MT-4 cells by 50%
# Type: functional
# Conditions: Homo sapiens
Give CC50 for every item shown.

Query :: What measured CC50 goes with [N-]=[N+]=NC1CC(n2cc(CCC(=O)NCCCCN)c(=O)[nH]c2=O)OC1CO (stereo not drawn) ?
Result :: > 100 µM

Query :: Thanks! And NCCCCCCCCCCCCNc1ccn(C2CCC(CO)O2)c(=O)n1 (stereo not drawn) ?
Result :: > 100 µM

Query :: Thanks! And COC(=O)CCCNC(=O)CCc1cn(C2CC(N=[N+]=[N-])C(CO)O2)c(=O)[nH]c1=O (stereo not drawn) ?
Result :: 75 µM

Query :: Thanks! And Cc1cn(C2CC(N=[N+]=[N-])C(CO)O2)c(=O)n(CCC(=O)NCCCCCCCCCCN)c1=O (stereo not drawn) ?
Result :: > 100 µM

Query :: Thanks! And CCc1c(Sc2cc(C)cc(C)c2)n(CCCCC(=O)OC)c(=O)[nH]c1=O ?
Result :: > 10 µM

Query :: Thanks! And CCOC(=O)CCn1c(=O)c(C)cn(C2CC(N=[N+]=[N-])C(CO)O2)c1=O (stereo not drawn) ?
Result :: > 100 µM

Query :: Thanks! And CCc1c(Sc2cc(C)cc(C)c2)n(CCCCC(=O)NCCCCCCCCCCCCNc2ccn(C3CCC(CO)O3)c(=O)n2)c(=O)[nH]c1=O (stereo not drawn) ?
Result :: > 10 µM

Query :: Thanks! And CCc1c(Sc2cc(C)cc(C)c2)n(CCCCC(=O)NCCCCCCCCCCNC(=O)CCn2c(=O)c(C)cn(C3CC(N=[N+]=[N-])C(CO)O3)c2=O)c(=O)[nH]c1=O (stereo not drawn) ?
Result :: > 10 µM
